assay: amyloid nucleation score (Sup35N fusion, yeast selection) (log enrichment); library NNK3; higher = more nucleation; inactive = no reads after selection;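 note: zero at mode of non-aggregating sequences after 7 days selection at 30°C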
Metric: amyloid nucleation score

Example entries begin here.
> print(dat)
              substance  test.result
1         GSGVNWFNIVVVS     inactive
2  NCWVNKIDVFLAESSMQCKA     inactive
3               FLRGLVK     inactive
4          LRPKYTFYCRLD        0.137

Query string: Which measured amyloid nucleation score value corresponds to LIRTARSLYWAYVHLAVSWR ?
Result string: inactive

Query string: Which measured amyloid nucleation score value corresponds to IYIAKLHEFSIRYVLPVWYI ?
Result string: inactive

Query string: Which measured amyloid nucleation score value corresponds to YFSRLTYCSRNSSCWILYCF ?
Result string: inactive

Query string: Which measured amyloid nucleation score value corresponds to DCTSILELVGGARPTHSGLE ?
Result string: inactive

Query string: Which measured amyloid nucleation score value corresponds to LWLCSYNATGSFVAKD ?
Result string: -0.246

The origin of these recorded values is the supplement of paper PMC12042874.
